TGT: Voltage-gated inwardly rectifying potassium channel KCNH2 (Homo sapiens)
PROCEDURE_TEXT: KCNH2 potassium channel function modulators, cell-based (AID 376);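 note: 0% = buffer alone and 100% = reference blocker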
SETUP_CONDITIONS: hERG-expressing cells, channel activity single-concentration screen; concentration not given here
About 250 (12%) of roughly 2,000 compounds were called active. The sample as a whole holds a higher share of actives than the screen did.
RECORDED_ENDPOINT: hERG blockade (%)
Please give a number only; it is taken to be in %.

Request body: readout hERG blockade, system Voltage-gated inwardly rectifying potassium channel KCNH2 (Homo sapiens), query NC(CC(=O)Nc1cc(C(F)(F)F)ccc1Cl)=NO . Return the value.
15.2

Request body: readout hERG blockade, system Voltage-gated inwardly rectifying potassium channel KCNH2 (Homo sapiens), query CC(=O)Nc1cc(CN2CCCCC2)c(O)c2ncccc12 . Return the value.
-2.13

Request body: readout hERG blockade, system Voltage-gated inwardly rectifying potassium channel KCNH2 (Homo sapiens), query CC1(C)OCC(C2OC3OC(C)(C)OC3C2N)O1 (stereo not drawn) . Return the value.
-5.67

Request body: readout hERG blockade, system Voltage-gated inwardly rectifying potassium channel KCNH2 (Homo sapiens), query O=C(O)CCc1nc(-c2ccccc2)c(-c2ccccc2)o1 . Return the value.
1.96

Request body: readout hERG blockade, system Voltage-gated inwardly rectifying potassium channel KCNH2 (Homo sapiens), query Cc1cn(CCC(N)C(=O)O)c(=O)[nH]c1=O (stereo not drawn) . Return the value.
2.71

Request body: readout hERG blockade, system Voltage-gated inwardly rectifying potassium channel KCNH2 (Homo sapiens), query O=C(Cn1ccc(=O)[nH]c1=O)Nc1ccc(C(=O)O)c(O)c1 . Return the value.
-7.44

Request body: readout hERG blockade, system Voltage-gated inwardly rectifying potassium channel KCNH2 (Homo sapiens), query Cc1ccc(N2CCN(CCC(=O)O)CC2)cc1 . Return the value.
-0.109

Request body: readout hERG blockade, system Voltage-gated inwardly rectifying potassium channel KCNH2 (Homo sapiens), query CN(C)CN1CSC(=S)N(CN(C)C)C1 . Return the value.
-7.7
